- Target Of Assay: SIK2 (Homo sapiens)
- Construct: purchased ThermoFisher Scientific PV4792
- Sequence (Q9H0K1 whole entry): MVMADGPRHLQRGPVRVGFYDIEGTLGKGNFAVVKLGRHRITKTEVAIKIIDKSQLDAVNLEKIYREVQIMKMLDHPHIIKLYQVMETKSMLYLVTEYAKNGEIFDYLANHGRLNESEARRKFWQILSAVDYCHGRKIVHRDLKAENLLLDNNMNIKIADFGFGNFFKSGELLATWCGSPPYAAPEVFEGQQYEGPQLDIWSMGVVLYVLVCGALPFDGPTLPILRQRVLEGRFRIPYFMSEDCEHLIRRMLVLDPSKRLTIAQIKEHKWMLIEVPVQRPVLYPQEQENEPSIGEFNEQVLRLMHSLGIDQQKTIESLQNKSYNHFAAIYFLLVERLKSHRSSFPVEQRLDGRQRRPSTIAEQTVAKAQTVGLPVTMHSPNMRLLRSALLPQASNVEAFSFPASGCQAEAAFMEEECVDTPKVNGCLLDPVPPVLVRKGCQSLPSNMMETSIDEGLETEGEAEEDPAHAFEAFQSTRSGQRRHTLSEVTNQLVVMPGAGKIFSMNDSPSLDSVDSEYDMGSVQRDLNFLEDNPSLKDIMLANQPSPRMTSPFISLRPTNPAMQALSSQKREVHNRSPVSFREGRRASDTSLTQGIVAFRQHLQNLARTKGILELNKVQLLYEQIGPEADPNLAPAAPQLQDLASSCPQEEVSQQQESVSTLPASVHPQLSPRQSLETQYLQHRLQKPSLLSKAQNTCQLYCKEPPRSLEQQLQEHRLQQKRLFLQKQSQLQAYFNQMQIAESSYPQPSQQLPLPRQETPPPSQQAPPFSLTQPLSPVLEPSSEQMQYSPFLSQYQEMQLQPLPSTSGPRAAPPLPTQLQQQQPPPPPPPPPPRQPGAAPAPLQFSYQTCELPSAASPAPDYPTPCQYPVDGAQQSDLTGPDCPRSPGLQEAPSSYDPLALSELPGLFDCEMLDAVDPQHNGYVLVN
- Test Details: biochemical
- Experimental Conditions: 33P radioactive SIK kinase assay, AMARA peptide, 10 μM ATP
pIC50: −log10 of the molar value.
Measurement Kind: pIC50

Before answering, review these 4 worked examples.
* COc1cc(-n2cnc3cc(-c4cnn(C)c4)ccc32)cc(OC)c1C(=O)NC1CC(F)(F)C1 | 7.00 to 8.00
* COc1cc(-n2cnc3cc(-c4cnn(C)c4)ccc32)cc(OC)c1C(=O)Nc1ccon1 | 7.00 to 8.00
* COc1cc(-n2cnc3cc(-c4cnn(C)c4)ccc32)cc(OC)c1C(=O)N[C@H]1CCCC[C@@H]1O | 6.30 to 7.00
* COc1cc(-n2cnc3cc(-c4cnnc(C)c4)ccc32)cc(OC)c1C(=O)NCC(F)(F)F | 6.30 to 7.00

Query string: What value of pIC50 has been reported for the following molecule? CCNC(=O)c1c(OC)cc(-n2cnc3cc(-c4cnn(CCN5CCOCC5)c4)ccc32)cc1OC
Result string: 7.00 to 8.00

Query string: Request: COC(=O)Cn1cc(-c2ccn3c(-c4cc(OC)c(C(=O)NCC(F)(F)F)c(OC)c4)cnc3c2)cn1
Result string: 8.00 to 11.00

Query string: Request: COc1cc(-c2cnn3cc(-c4cnn(C)c4)cnc23)cc(OC)c1C(=O)NCC(F)(F)F
Result string: 8.00 to 11.00

Query string: Request: CCn1cc(-c2cnc3c(-c4cc(OC)c(C(=O)NCC(F)(F)F)c(OC)c4)cnn3c2)cn1
Result string: 8.00 to 11.00

meta.source: patent US12065443B2
